system: transglutaminase (TGase); experiment: Measurement of TG (TGase inhibitory activity, monodansyl cadaverine / N,N-dimethylcasein fluorescence, FDSS 3000); type: biochemical; details: TGase activity with compound (10 mM, 1 μL in 0.1 ml enzyme reaction solution); DMSO control taken as 100
# label = Criterion met if TGase activity remaining (% of DMSO control = 100) < 80 else Criterion not met

// below: answered compounds
>  <compound>
Cc1ccc(B(OC(=O)C(N)CCN)c2ccc(C)c(Cl)c2)cc1Cl (stereo not shown)

>  <assigned label>
Criterion not met

$$$$
>  <compound>
CCC(C)B(O)c1ccccc1 (stereo not shown)

>  <assigned label>
Criterion not met

$$$$
>  <compound>
Cc1ccc(B(OCCC2CCCCN2)c2ccc(C)c(Cl)c2)cc1Cl (stereo not shown)

>  <assigned label>
Criterion not met

$$$$

Hi there! Is TGase activity remaining (% of DMSO control = 100) for `OB(c1ccccc1)c1ccccc1CCOCc1ccccc1B(O)c1ccccc1` below 80, do you know?
Criterion met

Item: `OB(c1ccc(C(F)(F)F)cc1)c1ccc(C(F)(F)F)cc1`
Criterion not met

// query: c1ccc(B(OCC2CCCN2)c2cccc(COCc3cccc(B(OCC4CCCN4)c4ccccc4)c3)c2)cc1 (stereo not shown)
Criterion met

Proceed to OB(c1ccccc1)c1ccc(B(O)c2ccccc2)cc1 [Example 252, 1,4-bis(phenylhydroxyboryl)benzene]
Criterion not met

Repeat with `OB(c1ccc(F)c(F)c1)c1ccc(F)c(F)c1`
Criterion not met

Subsequent entry: c1ccc(B(OB(c2ccccc2)c2ccccc2)c2ccccc2)cc1 [Example 217, diphenylborinic acid anhydride]
Criterion not met

Moving on to the next compound: c1ccc(B(OCC2CCCCN2)c2cccc(COCc3cccc(B(OCC4CCCCN4)c4ccccc4)c3)c2)cc1 (stereo not shown)
Criterion met

Proceed to Cc1ccc(Cl)cc1B(OC(=O)C(N)CCCNC(N)=O)c1cc(Cl)ccc1C (stereo not shown)
Criterion not met

Another: NC(=O)NCCCC(N)C(=O)OB(c1ccccc1)c1ccccc1 (stereo not shown) [Example 307, diphenyl(citrullinate-O,N)borane]
Criterion met

Data credit: patent US8853424B2
